test: M. tuberculosis H37Rv growth inhibitors, H37Rv strain (AID 1626); settings: hits give high values, concentration not given here;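 further: bacteria incubated seven days before Alamar blue readout; 0% = bacteria only wells and 100% = bacteria with antibiotic wells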
The whole screen tested about 220,000 compounds, of which about 2,000 (0.91%) were called active. Another 2% or so got no clear call; they are omitted. Not all results are given here. Results with a measured potency or affinity are listed apart.
Assignment: determine reported inhibition for the given compounds.
Answers are plain numbers, in %.

structure as smiles: COc1ccc(C)c2sc(NC(=O)C3=COCCO3)nc12
value unit: %
assay result: 5.95

structure as smiles: COc1ccc(OC)c2sc(NC(=O)C3=COCCO3)nc12
value unit: %
assay result: 6.97

// switching to the query compound
Which inhibition value belongs to `COc1ccc2c(c1)c1c3n2CCN(C)C3=NCC1` ?
-9.72

###

assay: M. tuberculosis H37Rv growth inhibitors, H37Rv strain (AID 1626); conditions: hits give high values, concentration not given here
Among all 220,000 compounds or so, about 2,000 (0.91%) were called active. Roughly 2% stayed inconclusive and do not appear here. The list is a sample of the results. Measured potencies and affinities stand elsewhere.
Assignment: determine reported inhibition for the given compounds.

In the examples that follow, each entry is paired with its recorded inhibition.
compound: COc1cccc(NC(=O)CN2CCN(S(=O)(=O)c3ccc(F)cc3)CC2)c1
inhibition: -7.83% (inactive)
//
compound: COc1ccc(Cl)cc1Nc1nc(C)cc(C)c1C(N)=O
inhibition: -2.67% (inactive)

// switching to the query compound
Which inhibition value belongs to COC(=O)c1ccc(OCC(O)CN2C(=O)NC(C)(C)C2=O)cc1 (stereo not drawn) ?
-2.31% (inactive)

###

assay: M. tuberculosis H37Rv growth inhibitors, H37Rv strain (AID 1626); conditions: hits give high values, concentration not given here
Among all 220,000 compounds or so, about 2,000 (0.91%) were called active. Roughly 2% stayed inconclusive and do not appear here. Only a sample is shown. Measured potencies and affinities stand elsewhere.
Assignment: determine reported inhibition for the given compounds.
Numbers only, in %.

In the examples that follow, each entry is paired with its recorded inhibition.
compound: Cc1ccc(C(=O)N(CC#N)CC#N)cc1C
endpoint label: inhibition
assay result: 0.74
--
compound: CCCCc1nnc(NC(=O)CN2C(=O)c3ccccc3C2=O)s1
endpoint label: inhibition
assay result: 0.96
--
compound: COc1ccc(C(CCN2CCCC(C)C2)c2c(OC)cc(OC)c3c(C)cc(=O)oc23)cc1 (stereo unspecified)
endpoint label: inhibition
assay result: 1.05

Would you mind giving inhibition for every compound in the list below?
1. Cc1ccc(Nc2ccc(C(=O)O)cc2N)cc1
2. Nc1cc(C(=O)c2cccs2)ccc1Cl
3. Clc1cccc(Cl)c1CSc1nnc(CN2CCOCC2)n1-c1ccccc1

[-7.86, -7.59, -7.41]

Would you mind giving inhibition for every compound in the list below?
1. O=C(O)CSc1cc(C(F)(F)F)nc(-c2ccccn2)n1
2. CC(C)c1nc2sc3ccccc3c(=O)c2c(=O)n1Cc1ccccc1

1: -6.21; 2: -7.18

Would you mind giving inhibition for every compound in the list below?
1. COc1ccc2nc(/C=N/NC(=O)[C@@H]3CCCN3C(=O)OC(C)(C)C)ccc2c1
2. Cc1ccc(Nc2ccccc2)cc1
3. CCCCCc1cc(=O)oc2c(C(CCN3CCN(c4ccccc4)CC3)c3ccc4c(c3)OCO4)c(OC)cc(OC)c12 (stereo unspecified)
4. COc1ccc(Nc2ccc(OC)cc2)cc1
5. CCN(CC)c1cc(C(F)(F)F)nc(-c2ccccn2)n1

1. -1.11
2. 6.23
3. 22.5
4. 47
5. -2.81

Would you mind giving inhibition for every compound in the list below?
1. Cc1cc(C)n(-c2nnc(NCc3ccc(Cl)cc3)nn2)n1
2. O=C(NCc1ccc(F)cc1)C1CCCN(S(=O)(=O)c2cccc3nsnc23)C1 (stereo unspecified)
3. COc1ccc(-c2cn3cc(C(F)(F)F)cc(Cl)c3n2)cc1

8.99
-3.19
65.8

###

Assignment: determine reported inhibition for the given molecules.
experiment: M. tuberculosis H37Rv growth inhibitors, H37Rv strain (AID 1626); conditions: hits give high values, concentration not given here;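 further: bacteria incubated seven days before Alamar blue readout; 0% = bacteria only wells and 100% = bacteria with antibiotic wells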
Among all 220,000 compounds or so, about 2,000 (0.91%) were called active. About 2% were inconclusive and are not listed. A selection follows. Entries with a potency or affinity are not part of this list.
Give bare numbers, in %.

In the examples that follow, each entry is paired with its recorded inhibition.
structure as smiles: N#Cc1c(NC(=O)CSCC(=O)O)sc2c1CCCC2
inhibition (%): -15.3
//
structure as smiles: Cc1cc2c(ncn2Cc2ccccc2)c(N)c1C
inhibition (%): 1.64
//
structure as smiles: CCOc1ccc(-c2nnc(N3CCCCC3)c3ccccc23)cc1
inhibition (%): -1.05

// switching to the query molecule
Which inhibition value belongs to `CCC(=O)Nc1ccc(-c2csc(C)n2)cc1` ?
45.9

###

test: M. tuberculosis H37Rv growth inhibitors, H37Rv strain (AID 1626); conditions: hits give high values, concentration not given here;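 further: bacteria incubated seven days before Alamar blue readout; 0% = bacteria only wells and 100% = bacteria with antibiotic wells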
Hit rate of the full screen: of about 220,000 compounds, about 2,000 (0.91%) were called active. Inconclusive results (about 2%) are left out. These entries were drawn from the full list. Entries with a potency or affinity are not part of this list.
Assignment: determine reported inhibition for the given molecules.
Numbers only, in %.

In the examples that follow, each entry is paired with its recorded inhibition.
molecule: CCCCNc1ccc(C(=O)OCCN(C)C)cc1
endpoint label: inhibition
assay result: 5.64

molecule: CNC(=S)N1CCc2ccccc2C1
endpoint label: inhibition
assay result: 3.08

molecule: CCOc1ccccc1CNc1nc2nc3c(c(=O)n2[nH]1)CCC3
endpoint label: inhibition
assay result: -2.76

Would you mind giving inhibition for every molecule in the list below?
1. O=C(CCc1ccc(Oc2cc([N+](=O)[O-])cc([N+](=O)[O-])c2)cc1)N1CCCCC1
2. COC(=O)c1c(NC(=O)CC2SC(N)=NC2=O)sc2c1CCCC2 (stereo not drawn)
3. N/C(=N\OC(=O)c1ccc(Cl)cc1)c1[nH]ncc1Br
4. CCOc1ccc2nc(SCC(=O)NC(=O)C(C)C)sc2c1
5. O=C(O)c1ccc(S(=O)(=O)c2ccc(Sc3ccc(C(=O)O)c(C(=O)O)c3)cc2)cc1
6. COC(=O)c1cc2ccsc2n1CC(=O)Nc1cc(C)cc(C)c1
7. Cc1ccc(NC(=S)NCCc2ccc(F)cc2)c(C)c1

3.78
0.3
-8.82
3.81
-20.9
-0.8
6.97

Would you mind giving inhibition for every molecule in the list below?
1. O=c1[nH][nH]cc1C=Nc1ccc(Cl)cc1
2. CCCn1c(Nc2ccc(Cl)cc2)nc2ccccc21
3. Cc1ccccc1OCCNc1cc(N2CCN(CCO)CC2)ccc1[N+](=O)[O-]
4. Cc1ccc(C)n1-c1ccc(N2CCOCC2)c(Br)c1
5. COc1ccc(NC(=O)c2ccccc2[N+](=O)[O-])cc1
6. O=S(=O)(c1cccs1)N1CCN(c2ccc(O)cc2)CC1

[4.25, 3.28, 27.5, 4.43, -5.35, -12.2]

Would you mind giving inhibition for every molecule in the list below?
1. Cc1cc2oc(=O)c3c(c2cc1OCc1nn[nH]n1)CCCC3
2. O=c1cc(N2CCCCC2)c2ccccc2o1
3. Nc1ccc2oc3ccc(N)cc3c(=O)c2c1
4. Cc1ccc(CNC(=O)Nc2cccc(C)c2)cc1
5. CCO[C@@H]1OC(C(=O)NCc2nc3ccccc3[nH]2)=C[C@H](C(C)(C)C)[C@H]1CCCO

1. -6.49
2. -1.79
3. 3.5
4. -0.4
5. -3

###

test: M. tuberculosis H37Rv growth inhibitors, H37Rv strain (AID 1626); details: hits give high values, concentration not given here;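 further: bacteria incubated seven days before Alamar blue readout; 0% = bacteria only wells and 100% = bacteria with antibiotic wells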
Among all 220,000 compounds or so, about 2,000 (0.91%) were called active. Roughly 2% stayed inconclusive and do not appear here. These entries were drawn from the full list. Measured potencies and affinities stand elsewhere.
endpoint label: inhibition (%)
One number for each entry, in %.

In the examples that follow, each entry is paired with its recorded inhibition.
compound: Cc1c(C(=O)Nc2ccncc2)oc2ccccc12
value unit: %
inhibition: -1.93
//
compound: Cc1cc(N2CCN(c3ccc(F)cc3)CC2)nc(-c2ccccc2)n1
value unit: %
inhibition: 4.82
//
compound: CCOC(=O)CN1C(=O)S/C(=C/c2cc(C)n(C)c2C)C1=O
value unit: %
inhibition: 8.52
//
compound: Nc1nc(SCc2ccc(Cl)cc2Cl)ns1
value unit: %
inhibition: 28.5
//
compound: O=C(NCc1ccccc1)c1c[nH]c2cc3c(cc2c1=O)OCCO3
value unit: %
inhibition: -8.63
//
compound: COc1ccc(C2(O)CC3CCC(C2)N3c2nc(C)cc(C)c2C#N)cc1 (centres undefined)
value unit: %
inhibition: -5.82
//
compound: C=CCn1c(O)c(C(C)=Nc2ccc(C(=O)O)cc2)c(=O)[nH]c1=O
value unit: %
inhibition: -11.5
//
compound: CCCCn1c(O)c(C(CC)=Nc2ccc(OC)cc2OC)c(=O)[nH]c1=O
value unit: %
inhibition: -1.05
//
compound: COc1ccc(CCNC(=O)CSc2cccc3cccnc23)cc1OC
value unit: %
inhibition: 3.55
//
compound: COc1ccc2oc(C(=O)Nc3nc4ccccc4[nH]3)c(C)c2c1
value unit: %
inhibition: 51.1

Would you mind giving inhibition for every compound in the list below?
1. O=C(Nc1nc2ccccc2[nH]1)c1ccccc1
2. c1ccc2c(NCC3CCCO3)nc(N3CCOCC3)nc2c1 (centres undefined)
3. COCCn1cnc2c1c(=O)n(CC(=O)OCC#N)c(=O)n2Cc1ccccc1
4. C=CCn1c(O)c(C(C)=Nc2ccc(NC(C)=O)cc2)c(=O)[nH]c1=O

1: 19.3; 2: -4.2; 3: 1.32; 4: -0.17
